Data origin, for the record: paper PMC4849045

- test method notes: Cell viability of LPS-treated mouse peritoneal macrophages (MTT assay)
- Type: cell-based
- condition notes: 3 µM, mean ± S.E.M. (n = 4), read-out: cell viability (%) in MTT assay (values in parentheses) (converted)
Property: viability at 3 µM; scope: individual compounds
Return type: number; implicit unit %.

INSERT INTO measurements (compound, property_measured, endpoint_unit, numeric_readout) VALUES
  ('CC(=O)O[C@@H]1C[C@H]2C(C)(C)C(=O)C=C[C@]2(C)[C@H]2CC[C@@]3(C)[C@H](c4ccoc4)C(=O)[C@H]4O[C@]43[C@@]21C [compound 8, epoxyazadiradione]', 'viability at 3 µM', '%', 99.6),
  ('CCC(=O)OC1C2(O)C(OC(C)=O)C3(C)CC24OC2(C)OC15C1CC(=O)OC(c6ccoc6)C1(C)C(OC(C)=O)C(O)C5(O2)C4(C)C3CC(=O)OC (stereo not drawn) [compound 13, Carapanolide M]', 'viability at 3 µM', '%', 99.2);

Next item in the queue.
Report measured viability at 3 µM; entry is COC(=O)C(OC(C)=O)C1C2(C)CC34OC5(C)OC6(C7CC(=O)OC(c8ccoc8)C7(C)C(OC(C)=O)C(O)C6(O5)C13C)C(OC(=O)C(C)C)C4(O)C2OC(C)=O (stereo not drawn) [compound 15, Carapanolide O] 104
